- measurement description: NCI Yeast Anticancer Drug Screen. Data for the sgs1 mgt1 strain (AID 161);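 note: 0% = growth of cultures given vehicle only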
- details: S. cerevisiae sgs1 mgt1 strain, at 5.0 µM (retest, dose inferred, filed as 0.5), stronger effect = higher value
This is part of a sample that, as a whole, favours compounds with a hit. Of some 79,000 tested, about 15% had one in any assay.
# growth inhibition annotations
Report the figure in % without appending any unit label.

Worked cases, growth inhibition given:
c1c[n+](CCC2CCCCC2)ccn1; -33
O=S(=O)(c1ccc2c(c1)CCCN2)N1CCC[C@H]2CCCC[C@@H]21; 0
CCC#CC(O)(C(=O)OCC)C1CCCC1 (centres undefined); -59

Prompt: What does the record list as growth inhibition for O=C(O)CN(CC(=O)O)C1CCCCC1N1CC(=O)OC(=O)C1 (centres undefined) ?
Completion: 26

---

- measurement description: NCI Yeast Anticancer Drug Screen. Data for the rad50 strain (AID 155);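 note: 0% = growth of vehicle-only cultures of the same strain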
- details: S. cerevisiae rad50 strain growth inhibition; at 50.0 µM (retest, dose inferred, filed as 5.0); stronger effect = higher value
Compounds without any hit were thinned out: in the full panel of roughly 79,000, 15% have a hit.
Kindly return true (1) if reported growth inhibition is no lower than 40%; return false (0) if it is lower.

Prompt: hey, is growth inhibition for this one >= 40%? `O=[N+]([O-])c1ccc(CCCl)c(CCl)c1`
Completion: true (1)

Prompt: Further, for `Oc1ccc2oc3ccccc3c2c1` ?
Completion: true (1)

Prompt: Quick one: `CC(=O)c1c(O)c2cccc3c2n(c1=O)CCC3`
Completion: true (1)

Prompt: Also `Cc1ccc(NC(=S)SCc2ccc(Cl)cc2)cc1Cl` ?
Completion: true (1)

Prompt: # repeat for Cc1ccc2c(c1)NC(=O)C(N=[N+]=[N-])(c1ccccc1)C2=O (configuration not stated)
Completion: true (1)

Prompt: Same lookup for `CCCCCCc1c(Cl)nc(Cl)nc1Cl` , please.
Completion: true (1)

Prompt: How about this molecule: `COc1ccc(OC)c(NC(=O)CCCC(=O)CC(=O)c2cccnc2)c1`
Completion: true (1)

Prompt: Please do the same for `S=c1nc(/C=C/c2ccc(Cl)c(Cl)c2)[nH][nH]1` as well.
Completion: true (1)

Prompt: Could you do the same for `COc1cc(C)c2sc3ccccc3c(=O)c2c1NCCCN(C)C` , please?
Completion: true (1)

Prompt: What do you have for `COC(=O)/C=C1/OC(c2ccccc2)=C(C)C1=O` ?
Completion: false (0)

Prompt: Then `CC(=O)Nc1ccc(-c2ccccc2)cc1[N+](=O)[O-]` ?
Completion: false (0)

Prompt: Continue with `Cc1c(O)c(Br)c(Br)c(Br)c1Br`
Completion: true (1)

Prompt: # repeat for `Cc1ccc(-c2c3nc(c(-c4ccc(C)cc4)c4ccc([nH]4)c(-c4ccc(C)cc4)c4nc(c(-c5ccncc5)c5ccc2[nH]5)C=C4)C=C3)cc1.Cc1ccc(-c2c3nc(c(-c4ccc(C)cc4)c4ccc([nH]4)c(-c4ccc(C)cc4)c4nc(c(-c5ccncc5)c5ccc2[nH]5)C=C4)C=C3)cc1.O=S(=O)([O-])C(F)(F)F.[Pt+2].c1ccc([PH+](CCC[PH+](c2ccccc2)c2ccccc2)c2ccccc2)cc1`
Completion: true (1)

Prompt: Another: `CSc1nnc(CCC(=O)Nc2c(C)cccc2C(C)(C)C)o1`
Completion: false (0)

Prompt: Please give the result for `Cc1ccc(N=C2SC(=S)N(CCC[N+](C)(C)C)C2=Nc2ccc(C)cc2)cc1` too.
Completion: true (1)

---

- measurement description: NCI Yeast Anticancer Drug Screen. Data for the bub3 strain (AID 167)
- details: S. cerevisiae bub3 mutant strain, at 50.0 µM (retest, dose inferred, filed as 5.0)
About 79,000 compounds went through this panel and 15% of them were active in at least one assay; those are over-represented in the sample as a whole. Calls of active or inactive are those of the source. No stated cut-off is given here; in the data, active means growth inhibition above about 70%; inactive means the rest.
# valid calls are 1 (active), 0 (inactive); nothing else

Use the examples below as a reference point.
COc1ccccc1/C=N/Nc1nnc(N/N=C/c2ccccc2OC)c2ccccc12; 1
Cc1cc(SCC(=O)c2ccc(Cl)cc2)cc(C)[o+]1; 1
Cc1ccc(C(=O)C(CN(C)C)CN(C)C)cc1; 0

Prompt: Each compound tested received a call. Report the one for `Cc1ccc(-c2c(C#N)c(-c3ccc(Cl)cc3)c(C#N)c(=O)n2NS(=O)(=O)c2ccccc2)cc1` .
Completion: 0

Prompt: Request: `COc1ccc(CN2C(=O)C(Cl)=C(Cl)C2=O)c(OC)c1`
Completion: 0

Prompt: Now consider `Cc1ccc(S(=O)(=O)S/C(=N\c2ccccn2)Nc2ccccn2)cc1` .
Completion: 0

Prompt: Next up: `Cc1cc(NC(=S)SCc2ccc(Cl)cc2)ccc1F`
Completion: 1

Prompt: Input `Cn1nc(-c2ccccc2NC(=O)C(F)(F)F)c(=O)n(C)c1=S`
Completion: 0

Prompt: Now give it for `Nc1nc(-c2cccnc2)nc(N)c1N=O` too.
Completion: 1

Prompt: What do we get for `CCCCCCCCCCCCCCN1CCSCC1` ?
Completion: 0

Prompt: Moving on to CCCCCCCCCCCC(=O)OCC1CO1 (stereo unspecified)
Completion: 0

Prompt: Thanks! And `CN(C)c1ccc(/C=N/N=C(/C#N)[S][Sn]([S]/C(C#N)=N/N=C/c2ccc(N(C)C)cc2)([c]2ccccc2)[c]2ccccc2)cc1` ?
Completion: 1

---

- measurement description: NCI Yeast Anticancer Drug Screen. Data for the rad50 strain (AID 155);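 note: 0% = growth of vehicle-only cultures of the same strain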
- details: S. cerevisiae rad50 strain growth inhibition; at 50.0 µM
This is part of a sample that, as a whole, favours compounds with a hit. Of some 79,000 tested, about 15% had one in any assay. Calls of active or inactive are those of the source. No stated cut-off is given here; in the data, active means growth inhibition above about 70%; inactive means the rest.
Respond only with the outcome that fits, drawn from t = active, f = inactive

Please review the entries below; each comes with its answer.
COc1cc(-c2ccc(-[n+]3nc(Cc4ccc5c(c4)OCO5)nn3-c3ccccc3)c(OC)c2)ccc1-[n+]1nc(Cc2ccc3c(c2)OCO3)nn1-c1ccccc1; f
CC[n+]1c(/C=C/c2ccc(N(C)C)cc2)ccc2ccccc21; t
CC(=O)Oc1c2c(c(C)c3ccccc13)C(=O)c1cccnc1C2=O; t

Okay, next one:
Prompt: For `C1=Nc2ccccc2/C1=C/c1ccccc1` , what call appears in the results of this test?
Completion: t

---

- measurement description: NCI Yeast Anticancer Drug Screen. Data for the sgs1 mgt1 strain (AID 161);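 note: 0% = growth of cultures given vehicle only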
- details: S. cerevisiae sgs1 mgt1 strain, at 50.0 µM (retest, dose inferred, filed as 5.0), stronger effect = higher value
About 79,000 compounds went through this panel and 15% of them were active in at least one assay; those are over-represented in the sample as a whole.
Listed here: items and their measured growth inhibition.
Just the number in %, nothing appended.

Look over these answered cases.
CSC1=Nc2ccccc2SC(c2ccccc2)C1c1ccccc1 (stereo not drawn); 17
CC1(C)CCN(CCOC(=O)C(c2ccccc2)C2C=CCCC2)C1 (stereo not drawn); 69
N#Cc1c(Cl)cc(Cl)n2c1nc1ccccc12; 100
Oc1c(Cl)cc(C(c2cc(Cl)c(O)c(Cl)c2)C(c2cc(Cl)c(O)c(Cl)c2)c2cc(Cl)c(O)c(Cl)c2)cc1Cl; 98
O=[N+]([O-])/C=C/c1cc2ccccc2[nH]1; 99

Prompt: What value of measured growth inhibition is listed for `COc1ccc(Oc2cc3c[n+](C)ccc3cc2OC)cc1` ?
Completion: 91

Prompt: Do the same for `O=S(=O)(Nc1ccccc1-c1ccc(Cl)cc1)c1ccccc1` please
Completion: -56

Prompt: Would you mind doing `COc1ccc(Cc2ccc3c(C)cc(Cl)nc3c2)cc1` as well?
Completion: 96

Prompt: Next compound: `CN(C)C(=S)SN(C)C(=O)Nc1ccccc1`
Completion: 96

Prompt: Input `Cc1ccc2cccc(N)c2c1`
Completion: 4

Prompt: Same read-out for `Cc1cc(NS(=O)(=O)c2ccc(NCc3c4ccccc4nc4cc(Cl)ccc34)cc2)no1` ?
Completion: 99

Prompt: Subsequent entry: CC(=O)OC1C(O)C(C)OC(OC(=O)C2CCC3C(C2)OC2(CC(OC(=O)/C=C/c4ccccc4)C(C)CO2)C32CO2)C1OC1OC(C)C(O)C(O)C1O (stereo not drawn)
Completion: 98

Prompt: What about this compound? `CC(C)(C)c1ccc2c(c1)CNCCNCc1cc(C(C)(C)C)ccc1OCC1(CO2)COc2ccc(C(C)(C)C)cc2CNCCNCc2cc(C(C)(C)C)ccc2OC1`
Completion: 92

---

Reported growth inhibition is given for each of the following compounds.
- measurement description: NCI Yeast Anticancer Drug Screen. Data for the bub3 strain (AID 167)
- details: S. cerevisiae bub3 mutant strain, at 50.0 µM (retest, dose inferred, filed as 5.0), stronger effect = higher value
The panel holds about 79,000 compounds, 15% with a hit somewhere; the sample as a whole holds those more often. Calls of active or inactive are those of the source. Cut-off read from the data, not from the text of the source: active = growth inhibition above about 70%; inactive = the rest.

CC(=O)OCCCCCCCCCCCCCCO; 99% (active)
O=C(N/C(=C\c1nc2ccccc2s1)c1ccccc1O)c1ccccc1; 75% (active)
C=CCOc1cc(NC(=S)c2sccc2C)ccc1Cl; 94% (active)
Cc1c(C)c(C[P+](CCP(c2ccccc2)c2ccccc2)(c2ccccc2)c2ccccc2)c(C)c(C)c1C[P+](CCP(c1ccccc1)c1ccccc1)(c1ccccc1)c1ccccc1; 21% (inactive)
[N-]=[N+]=Nc1c(-c2ccccc2)c(=O)n(-c2ccccc2)c2ccccc12; 94% (active)
COc1cccc2c1C(=O)c1c(O)c3c(c(O)c1C2=O)CC(O)(C(C)=O)CC3OC1CC(NCC2(O)OCC(O)C(O)C2O)C(O)C(C)O1 (centres undefined); 98% (active)
c1c2c(cc(-n3nnc4c3CCCCCC4)c1-n1nnc3c1CCCCCC3)CCCCCC2; 7% (inactive)
COc1ccc(CCCCC(=O)O)cc1O; -80% (inactive)

Attention now turns to another entry.
Prompt: Fill in: growth inhibition of CSC(=S)CC(O)[C@@H]1CC2c3ccccc3C1c1ccccc12 (some centres undefined) is ___
Completion: 93% (active)
